tested on: Leishmania donovani; test: Selectivity index, ratio of IC50 for antileishmanial activity against Leishmania donovani MHOM/IN/95/9515 promastigotes assessed as inhibition of parasite growth to IC50 for antileishmanial activity against Leishmania donovani MHOM/IN/95/9515 amastigote assessed as inhibition of parasite growth; type: functional
Parameter Ratio IC50: see the listing below.

*Q* Please report the recorded Ratio IC50 for O=[N+]([O-])c1ccc(/C=N/N=C/c2ccc(O)cc2)s1 .
*A* 4.88

*Q* Please report the recorded Ratio IC50 for O=[N+]([O-])c1ccc(/C=N/N=C/c2ccc(OCc3ccccc3)cc2)o1 .
*A* 6.44

*Q* Please report the recorded Ratio IC50 for O=[N+]([O-])c1ccc(/C=N/N=C/c2ccc([N+](=O)[O-])o2)cc1 .
*A* 1.32

*Q* Please report the recorded Ratio IC50 for O=[N+]([O-])c1ccc(/C=N/N=C/c2ccc(Br)cc2)o1 .
*A* 0.56

*Q* Please report the recorded Ratio IC50 for O=[N+]([O-])c1ccc(/C=N/N=C/c2ccc(O)cc2)o1 .
*A* 0.38

New cases:
*Q* Please report the recorded Ratio IC50 for O=[N+]([O-])c1ccc(/C=N/N=C/c2ccccc2)s1 .
*A* 0.13

*Q* Please report the recorded Ratio IC50 for COc1ccc(/C=N/N=C/c2ccc([N+](=O)[O-])o2)cc1 .
*A* 0.51

*Q* Please report the recorded Ratio IC50 for NC(=O)N/N=C/c1ccc([N+](=O)[O-])o1 [NITROFURAZONE] .
*A* 1.09

* * *

experiment: Selectivity index, ratio of IC50 for cytotoxicity against African green monkey Vero cells assessed as inhibition of cell growth to IC50 for antitrypanosomal activity against Trypanosoma cruzi trypomastigotes assessed as parasite growth inhibition; type: toxicity, cell-based; conditions: read-out: Ratio IC50
readout-label: selectivity ratio
// response body must contain only the number

*Q* Please report the recorded selectivity ratio for O=[N+]([O-])c1ccc(/C=N/N=C/c2ccc(F)cc2)o1 .
*A* 24

*Q* Please report the recorded selectivity ratio for O=[N+]([O-])c1ccc(/C=N/N=C/c2ccc(Cl)cc2)o1 .
*A* 33

* * *

system: Trypanosoma cruzi; assay: Selectivity index, ratio of IC50 for antitrypanosomal activity against Trypanosoma cruzi epimastigote assessed as parasite growth inhibition to IC50 for antitrypanosomal activity against Trypanosoma cruzi trypomastigotes assessed as parasite growth inhibition; type: functional
# yes = Ratio IC50 below 3 (exclusive); no = Ratio IC50 at/above 3

Below are worked cases with known answers.
*Q* Take the compound O=[N+]([O-])c1ccc(/C=N/N=C/c2ccc(O)cc2)o1 and say whether its Ratio IC50 is less than 3.
*A* no

*Q* Take the compound COc1ccc(/C=N/N=C/c2ccc([N+](=O)[O-])o2)cc1 and say whether its Ratio IC50 is less than 3.
*A* yes

*Q* Take the compound NC(=O)N/N=C/c1ccc([N+](=O)[O-])o1 [NITROFURAZONE] and say whether its Ratio IC50 is less than 3.
*A* no

*Q* Take the compound Cc1ccc(/C=N/N=C/c2ccc([N+](=O)[O-])o2)cc1 and say whether its Ratio IC50 is less than 3.
*A* yes

*Q* Take the compound O=[N+]([O-])c1ccc(/C=N/N=C/c2ccc(F)cc2)o1 and say whether its Ratio IC50 is less than 3.
*A* yes

New cases:
*Q* Take the compound O=[N+]([O-])c1ccc(/C=N/N=C/c2ccccc2)s1 and say whether its Ratio IC50 is less than 3.
*A* no

*Q* Take the compound O=[N+]([O-])c1ccc(/C=N/N=C/c2ccc([N+](=O)[O-])o2)cc1 and say whether its Ratio IC50 is less than 3.
*A* no

*Q* Take the compound O=[N+]([O-])c1ccc(/C=N/N=C/c2ccccc2)o1 and say whether its Ratio IC50 is less than 3.
*A* no

*Q* Take the compound O=[N+]([O-])c1ccc(/C=N/N=C/c2ccc(Cl)cc2)o1 and say whether its Ratio IC50 is less than 3.
*A* yes
